- experimental-target: visual cycle isomerase (Bos taurus (Bovine))
- Sequence (Q28175 2-533): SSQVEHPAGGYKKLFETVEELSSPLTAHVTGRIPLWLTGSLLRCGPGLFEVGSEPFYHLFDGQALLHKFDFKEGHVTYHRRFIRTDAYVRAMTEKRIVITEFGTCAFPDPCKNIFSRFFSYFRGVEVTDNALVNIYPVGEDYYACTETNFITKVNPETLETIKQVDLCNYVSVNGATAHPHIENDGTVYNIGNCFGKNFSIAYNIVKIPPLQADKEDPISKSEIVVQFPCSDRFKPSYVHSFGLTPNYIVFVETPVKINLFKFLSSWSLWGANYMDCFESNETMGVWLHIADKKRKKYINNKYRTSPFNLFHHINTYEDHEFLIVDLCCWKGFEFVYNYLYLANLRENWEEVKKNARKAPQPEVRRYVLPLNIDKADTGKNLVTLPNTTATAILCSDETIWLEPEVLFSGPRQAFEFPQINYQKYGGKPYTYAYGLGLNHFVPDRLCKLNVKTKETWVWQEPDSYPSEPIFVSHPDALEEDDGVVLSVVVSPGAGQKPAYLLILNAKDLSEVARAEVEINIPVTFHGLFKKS
- measurement-description: Bovine in vitro isomerase inhibition assay (RPE microsome membranes)
pIC50: −log10 of the molar value.
assay-endpoint: pIC50

Check out these entries, answers already filled in.
CC(=O)NCCC(O)c1cccc(OCC2CCCCC2)c1 (stereo not drawn)
5.00 to 6.00
NCCOc1cccc(OCc2ccccc2)c1
5.00 to 6.00

Next, consider the following molecule.
Record request: pIC50 value, item NCCOc1cccc(OCC2(O)CCCCCC2)c1
5.00 to 6.00

* * *

- experimental-target: isomerase (Mus musculus (Mouse), UniProt Q91ZQ5)
- Sequence (Q91ZQ5 whole entry): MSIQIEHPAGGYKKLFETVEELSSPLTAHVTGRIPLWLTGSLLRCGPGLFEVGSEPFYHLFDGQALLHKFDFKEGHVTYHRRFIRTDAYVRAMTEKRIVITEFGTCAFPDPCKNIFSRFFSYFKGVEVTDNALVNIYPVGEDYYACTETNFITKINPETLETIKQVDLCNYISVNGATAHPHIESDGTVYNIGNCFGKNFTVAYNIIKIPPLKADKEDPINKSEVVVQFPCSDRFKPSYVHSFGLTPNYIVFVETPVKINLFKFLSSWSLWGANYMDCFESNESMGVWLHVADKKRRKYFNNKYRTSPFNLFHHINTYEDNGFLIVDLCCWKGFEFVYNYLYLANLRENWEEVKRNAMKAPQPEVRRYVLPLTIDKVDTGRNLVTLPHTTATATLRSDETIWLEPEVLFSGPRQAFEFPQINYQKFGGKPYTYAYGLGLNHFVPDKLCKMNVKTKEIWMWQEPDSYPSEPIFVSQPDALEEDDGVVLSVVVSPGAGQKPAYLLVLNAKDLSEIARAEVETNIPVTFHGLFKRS
- measurement-description: In vivo murine isomerase assay (recovery of 11-cis-retinal after photobleaching)
- Parameters: species or system mice
- applied-conditions: read-out: % Inhibition 1 mg/kg, 4 h
Categorize each record by its inhibition at 1 mg/kg using lower level: < 20%; middle level: ≥ 20% and < 70%; upper level: ≥ 70%

Solved entries (count: 10):
NCCC(=O)c1cccc(OCC2CCCCCC2)c1 [Example 16]
middle level
CCCC(CCC)COc1cccc([C@H](O)[C@H](C)CN)c1 [Example 55]
upper level
NCCOc1cccc(OCCc2ccccc2)c1 [Example 47, 2-(3-Phenethoxyphenoxy)ethanamine]
lower level
CCC(CC)COc1cccc([C@H](O)[C@H](C)CN)c1 [Example 72]
lower level
NCCCc1cccc(OCC2CCCCCC2)c1 [Example 14]
upper level
CCC(CC)COc1cccc(C(O)CCN)c1 (stereo not shown) [Example 45]
upper level
NCCOc1cccc(OCC2CCCCC2)c1 [Example 7]
lower level
NCCOc1cccc(OCC2CCCCCC2)c1 [Example 9]
lower level
CCCC(CCC)COc1cccc(C(O)CCN)c1 (stereo not shown) [Example 17]
upper level
NCCC(O)c1cccc(OCC2CCCCCC2)c1 (stereo not shown) [Example 15]
upper level

Assign a bin to COCCOCCOCC(=O)NCCC(O)c1cccc(OCC2CCCCC2)c1 (stereo not shown) [Example 77]
middle level

Assign a bin to CCC(O)(CC)COc1cccc(C(O)CCN)c1 (stereo not shown) [Example 30]
middle level

Assign a bin to CC(C)CCOc1cccc(C(O)CCN)c1 (stereo not shown) [Example 107]
middle level

Assign a bin to NCCC(O)c1cccc(OCC2(O)CCCCC2)c1 (stereo not shown) [Example 12]
middle level

Assign a bin to N=C(N)CC(O)c1cccc(OCC2CCCCC2)c1 (stereo not shown) [Example 130]
lower level

Assign a bin to C[C@H](CN)[C@@H](O)c1cccc(OCC2CCCC2)c1 [Example 56]
lower level

Assign a bin to NCCS(=O)(=O)c1cccc(OCC2CCCCC2)c1 [Example 125]
lower level

Assign a bin to CCCC(O)(CCC)COc1cccc(C(O)CCN)c1 (stereo not shown) [Example 20]
upper level

Assign a bin to NCCC(O)c1cccc(OCC2(O)CCCCCC2)c1 (stereo not shown) [Example 13]
middle level

Assign a bin to NCCC(O)c1cccc(OCC2CC3CCC2C3)c1 (stereo not shown) [Example 48]
middle level

Assign a bin to COCCCCOc1cccc(C(O)CCN)c1 (stereo not shown) [Example 88]
upper level
